Numbers sourced from PubChem BioAssay.

Study system: Potassium voltage-gated channel subfamily KQT member 1 (Homo sapiens)
Experiment summary: KCNQ1 potassium channel potentiators, confirmation, FluxOR thallium flux, CHO cells, duplicates (AID 493007);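 for Outcome: cells depolarized by a potassium plus thallium sulfate stimulus after compound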
Experimental parameters: KCNQ1 cell line, FluxOR thallium flux fluorescence, at 10 µM, % of reference activator effect, buffer zero
Activity calls are given as the source filed them.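 Rule for the calls: active = potentiation averaged over duplicate wells exceeding buffer-only control mean by more than 3 SD; inactive = the rest.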
Outcome (select one): TRUE = active, FALSE = inactive

Enquiry: Dear all, I need the recorded test outcome for CN1CCN(c2cc(N3CCCC3)c([N+](=O)[O-])cc2F)CC1 , thank you.
Return: FALSE

Enquiry: Record request — test call for CCOc1cc(CNCCc2c[nH]c3ccccc23)cc(Cl)c1OCC
Return: TRUE
